B1: library; a variant is named by its letters at N, in order (parent)
chain: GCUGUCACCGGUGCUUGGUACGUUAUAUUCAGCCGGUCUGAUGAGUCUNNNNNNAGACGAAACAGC

Variants of: B1
method: normalized RNA/DNA level without ligand (relative to sTRSVctl = 100) (log10 (% of sTRSVctl)); HEK293T overexpressing SLC46A1; higher = less ribozyme self-cleavage, higher mRNA level
measurement.parameters: without (6R,S)-folinic acid; ligand present: no
Assign normalized RNA/DNA level without ligand (log10) to each entry below.
# answer = number (no unit)

Record request: normalized RNA/DNA level without ligand (log10) value, item GCUGUCACCGGUGCUUGGUACGUUAUAUUCAGCCGGUCUGAUGAGUCUGGGCGAAGACGAAACAGC [GGGCGA]
2.09

Record request: normalized RNA/DNA level without ligand (log10) value, item GCUGUCACCGGUGCUUGGUACGUUAUAUUCAGCCGGUCUGAUGAGUCUUCAGGAAGACGAAACAGC [UCAGGA]
1.9

Record request: normalized RNA/DNA level without ligand (log10) value, item GCUGUCACCGGUGCUUGGUACGUUAUAUUCAGCCGGUCUGAUGAGUCUUCGAUCAGACGAAACAGC [UCGAUC]
2.06

Record request: normalized RNA/DNA level without ligand (log10) value, item GCUGUCACCGGUGCUUGGUACGUUAUAUUCAGCCGGUCUGAUGAGUCUGCCCGUAGACGAAACAGC [GCCCGU]
2.01

Record request: normalized RNA/DNA level without ligand (log10) value, item GCUGUCACCGGUGCUUGGUACGUUAUAUUCAGCCGGUCUGAUGAGUCUGUUGGCAGACGAAACAGC [GUUGGC]
1.91

Record request: normalized RNA/DNA level without ligand (log10) value, item GCUGUCACCGGUGCUUGGUACGUUAUAUUCAGCCGGUCUGAUGAGUCUCGUAGAAGACGAAACAGC [CGUAGA]
1.99

Record request: normalized RNA/DNA level without ligand (log10) value, item GCUGUCACCGGUGCUUGGUACGUUAUAUUCAGCCGGUCUGAUGAGUCUGAUAUAAGACGAAACAGC [GAUAUA]
1.96

Record request: normalized RNA/DNA level without ligand (log10) value, item GCUGUCACCGGUGCUUGGUACGUUAUAUUCAGCCGGUCUGAUGAGUCUGUCUUGAGACGAAACAGC [GUCUUG]
1.97

Record request: normalized RNA/DNA level without ligand (log10) value, item GCUGUCACCGGUGCUUGGUACGUUAUAUUCAGCCGGUCUGAUGAGUCUAUCAAUAGACGAAACAGC [AUCAAU]
1.99

Record request: normalized RNA/DNA level without ligand (log10) value, item GCUGUCACCGGUGCUUGGUACGUUAUAUUCAGCCGGUCUGAUGAGUCUGAAGUUAGACGAAACAGC [GAAGUU]
2.01

Record request: normalized RNA/DNA level without ligand (log10) value, item GCUGUCACCGGUGCUUGGUACGUUAUAUUCAGCCGGUCUGAUGAGUCUUCAACUAGACGAAACAGC [UCAACU]
2.03

Record request: normalized RNA/DNA level without ligand (log10) value, item GCUGUCACCGGUGCUUGGUACGUUAUAUUCAGCCGGUCUGAUGAGUCUGUGGAUAGACGAAACAGC [GUGGAU]
1.94

Record request: normalized RNA/DNA level without ligand (log10) value, item GCUGUCACCGGUGCUUGGUACGUUAUAUUCAGCCGGUCUGAUGAGUCUUCUCGUAGACGAAACAGC [UCUCGU]
1.99

Record request: normalized RNA/DNA level without ligand (log10) value, item GCUGUCACCGGUGCUUGGUACGUUAUAUUCAGCCGGUCUGAUGAGUCUAGACCCAGACGAAACAGC [AGACCC]
2.04

Record request: normalized RNA/DNA level without ligand (log10) value, item GCUGUCACCGGUGCUUGGUACGUUAUAUUCAGCCGGUCUGAUGAGUCUCAAGCUAGACGAAACAGC [CAAGCU]
2.05

Record request: normalized RNA/DNA level without ligand (log10) value, item GCUGUCACCGGUGCUUGGUACGUUAUAUUCAGCCGGUCUGAUGAGUCUCGAGCGAGACGAAACAGC [CGAGCG]
1.99

Record request: normalized RNA/DNA level without ligand (log10) value, item GCUGUCACCGGUGCUUGGUACGUUAUAUUCAGCCGGUCUGAUGAGUCUGGAAUAAGACGAAACAGC [GGAAUA]
2.02

Record request: normalized RNA/DNA level without ligand (log10) value, item GCUGUCACCGGUGCUUGGUACGUUAUAUUCAGCCGGUCUGAUGAGUCUUUAGUGAGACGAAACAGC [UUAGUG]
1.76

Record request: normalized RNA/DNA level without ligand (log10) value, item GCUGUCACCGGUGCUUGGUACGUUAUAUUCAGCCGGUCUGAUGAGUCUUAGUUAAGACGAAACAGC [UAGUUA]
1.93

Record request: normalized RNA/DNA level without ligand (log10) value, item GCUGUCACCGGUGCUUGGUACGUUAUAUUCAGCCGGUCUGAUGAGUCUGAUAACAGACGAAACAGC [GAUAAC]
1.97

Record request: normalized RNA/DNA level without ligand (log10) value, item GCUGUCACCGGUGCUUGGUACGUUAUAUUCAGCCGGUCUGAUGAGUCUAGACCAAGACGAAACAGC [AGACCA]
2.05

Record request: normalized RNA/DNA level without ligand (log10) value, item GCUGUCACCGGUGCUUGGUACGUUAUAUUCAGCCGGUCUGAUGAGUCUUGAUGCAGACGAAACAGC [UGAUGC]
1.95

Record request: normalized RNA/DNA level without ligand (log10) value, item GCUGUCACCGGUGCUUGGUACGUUAUAUUCAGCCGGUCUGAUGAGUCUUCUUGCAGACGAAACAGC [UCUUGC]
2.02

Record request: normalized RNA/DNA level without ligand (log10) value, item GCUGUCACCGGUGCUUGGUACGUUAUAUUCAGCCGGUCUGAUGAGUCUUAUGGCAGACGAAACAGC [UAUGGC]
1.95

Record request: normalized RNA/DNA level without ligand (log10) value, item GCUGUCACCGGUGCUUGGUACGUUAUAUUCAGCCGGUCUGAUGAGUCUUGAGCCAGACGAAACAGC [UGAGCC]
2.04

Record request: normalized RNA/DNA level without ligand (log10) value, item GCUGUCACCGGUGCUUGGUACGUUAUAUUCAGCCGGUCUGAUGAGUCUACAUCUAGACGAAACAGC [ACAUCU]
2.02

Record request: normalized RNA/DNA level without ligand (log10) value, item GCUGUCACCGGUGCUUGGUACGUUAUAUUCAGCCGGUCUGAUGAGUCUUCCAUCAGACGAAACAGC [UCCAUC]
2.04

Record request: normalized RNA/DNA level without ligand (log10) value, item GCUGUCACCGGUGCUUGGUACGUUAUAUUCAGCCGGUCUGAUGAGUCUUUCUUAAGACGAAACAGC [UUCUUA]
2.03

Record request: normalized RNA/DNA level without ligand (log10) value, item GCUGUCACCGGUGCUUGGUACGUUAUAUUCAGCCGGUCUGAUGAGUCUGCUACCAGACGAAACAGC [GCUACC]
2.06

Record request: normalized RNA/DNA level without ligand (log10) value, item GCUGUCACCGGUGCUUGGUACGUUAUAUUCAGCCGGUCUGAUGAGUCUACUCAGAGACGAAACAGC [ACUCAG]
1.97

Record request: normalized RNA/DNA level without ligand (log10) value, item GCUGUCACCGGUGCUUGGUACGUUAUAUUCAGCCGGUCUGAUGAGUCUAUCUUGAGACGAAACAGC [AUCUUG]
1.95

Record request: normalized RNA/DNA level without ligand (log10) value, item GCUGUCACCGGUGCUUGGUACGUUAUAUUCAGCCGGUCUGAUGAGUCUACGAGGAGACGAAACAGC [ACGAGG]
1.86

Record request: normalized RNA/DNA level without ligand (log10) value, item GCUGUCACCGGUGCUUGGUACGUUAUAUUCAGCCGGUCUGAUGAGUCUUACCCGAGACGAAACAGC [UACCCG]
1.92

Record request: normalized RNA/DNA level without ligand (log10) value, item GCUGUCACCGGUGCUUGGUACGUUAUAUUCAGCCGGUCUGAUGAGUCUACGGCCAGACGAAACAGC [ACGGCC]
2.12

Record request: normalized RNA/DNA level without ligand (log10) value, item GCUGUCACCGGUGCUUGGUACGUUAUAUUCAGCCGGUCUGAUGAGUCUGCAAAUAGACGAAACAGC [GCAAAU]
2

Record request: normalized RNA/DNA level without ligand (log10) value, item GCUGUCACCGGUGCUUGGUACGUUAUAUUCAGCCGGUCUGAUGAGUCUGGGAUGAGACGAAACAGC [GGGAUG]
1.97
